These entries and their values trace back to ChEMBL document CHEMBL1201862.

- Test system: A549
- Assay details: NCI tumour cell line growth inhibition, 48 h
Calls of active or inactive are those of the source. Rule as the data show it: active = GI50 up to about 1.1 µM and inactive = higher.
Choose the fitting class; nothing outside true = active, false = inactive is accepted.

// known answers, use as guide
{"Molecule": "C#CCn1c(I)cc2c(c1=O)COC(=O)[C@]2(O)CC", "Discrete label": "false"}
{"Molecule": "CCOC(=O)C1=C(C)N(NC(N)=O)C(C)(O)C12CCOC2=O (stereo unspecified)", "Discrete label": "false"}
{"Molecule": "COc1cc(O)c(C(=O)/C=C/c2ccc(O)cc2)cc1Oc1ccc(C(=O)/C=C/c2ccc(O)cc2)c(O)c1", "Discrete label": "false"}
{"Molecule": "CCc1ccccc1NC(=O)CCc1n[nH]c(=S)o1", "Discrete label": "false"}
{"Molecule": "CN1CCN(CCCN)CC1", "Discrete label": "false"}
{"Molecule": "O=C1C(Cl)=C(N2C(=O)CCCC2=O)C(=O)c2ccccc21", "Discrete label": "false"}

In the following, a different molecule is considered.
Problem: Recorded call for "Nc1nc(S)nc2snnc12" ?
Solution: false

----------
- System: SK-OV-3
- Assay details: NCI tumour cell line growth inhibition, 48 h
Active and inactive are the calls of the source. Cut-off read from the data, not from the text of the source: active = GI50 up to about 1.1 µM and inactive = higher.
Recorded endpoint: GI50

The cases that follow already have their GI50 on record.
{"Compound": "COC(=O)/C=C1/OC(c2ccccc2)=C(Br)C1=O", "GI50": "> 100 µM (inactive)"}
{"Compound": "FC1(F)[Se]C2C3CCC(C3)C2C1(F)F (stereo unspecified)", "GI50": "> 100 µM (inactive)"}
{"Compound": "COC(=O)/C(C#N)=C1\\NN=NN1CCCc1ccccc1", "GI50": "> 100 µM (inactive)"}
{"Compound": "CS/C(=N\\C(=S)N(C)C)N(c1ccccc1)c1nc(N(C)C)s[s+]1", "GI50": "41.3 µM (inactive)"}

Problem: Item "O=C(O)COc1ccc(O)c2c1C(=O)CCCC2=O" has what recorded GI50?
Solution: > 100 µM (inactive)

Problem: Item C/C=C1\C(=O)OC2CCN3CCC(COC(=O)C(C)(O)C(C)C1O)C23 (stereo unspecified) has what recorded GI50?
Solution: > 100 µM (inactive)

----------
- System: DMS-273
- Assay details: NCI tumour cell line growth inhibition, 48 h
Active and inactive are the calls of the source. Cut-off read from the data, not from the text of the source: active = GI50 up to about 1.1 µM and inactive = higher.
The entries below are paired with their reported GI50.

Problem: Item N#CC(C#N)=Cc1ccc(C(O)P(=O)(O)O)cc1 (stereo unspecified) has what recorded GI50?
Solution: > 100 µM (inactive)

Problem: Item COC(=O)CC(C(C(=O)OCc1ccccc1)C(C)O)N1C(=O)OC(c2ccccc2)C1c1ccccc1 (stereo unspecified) has what recorded GI50?
Solution: > 100 µM (inactive)

Problem: Item O=C(Cc1ccccc1)C(c1ccccc1)S(=O)(=O)c1ccccc1 (stereo unspecified) has what recorded GI50?
Solution: > 100 µM (inactive)

Problem: Item "CCc1ccccc1NC(=O)CCc1n[nH]c(=S)o1" has what recorded GI50?
Solution: > 100 µM (inactive)

Problem: Item CCCCNC(=O)C1C2CCC(O2)C1C(=O)O (stereo unspecified) has what recorded GI50?
Solution: 32.4 µM (inactive)

Problem: Item COc1cc(C2C(C(=O)O)=C(COC(C)=O)Oc3cc4c(cc32)OCO4)cc(OC)c1OC(C)=O (stereo unspecified) has what recorded GI50?
Solution: > 100 µM (inactive)
